Test system: SF-539 CNS
Assay: NCI-60 one-dose screen, 48 h
Conditions: 10 µM unless noted
Compounds without any hit were thinned out: in the full panel of roughly 83,000, 20% have a hit. Activity calls are given as the source filed them. How the source made its calls: active means growth percent below 10; inactive means the rest.
Outcome codes: active, inactive

- compound: "COC(=O)[C@H](C[C@H](Cc1ccccc1)NC(=O)c1csc([C@@H](C[C@H](C(C)C)N(C)C(=O)[C@@H](NC(=O)[C@H]2CCCCN2C)C(C)C)OC(C)=O)n1)NC(=O)OCc1ccccc1"
  experimental_target: "SF-539 CNS"
  label_value: "active"
- compound: "O=C(CCCCCNC1=CC(=O)c2ccccc2C1=O)NCCC[Te]c1ccccc1"
  experimental_target: "SF-539 CNS"
  label_value: "active"
- compound: "CC1(C)N=C(N)N=C(N)N1c1ccc(OCCCNC(=O)Nc2ccc(S(=O)(=O)F)cc2)c(Cl)c1"
  experimental_target: "SF-539 CNS"
  label_value: "inactive"
- compound: "Fc1c[c-]c(-c2ccccn2)c(F)c1.[CH3-].[Pt+2].c1ccc([PH+](c2ccccc2)c2ccccn2)cc1"
  experimental_target: "SF-539 CNS"
  label_value: "active"
- compound: "CC1CN1CCCCN1CC1C (stereo not given)"
  experimental_target: "SF-539 CNS"
  label_value: "inactive"
- compound: "CC(=O)C(c1c(O)c2ccccc2oc1=O)c1cc(=O)oc2c1ccc1ccccc12 (stereo not given)"
  experimental_target: "SF-539 CNS"
  label_value: "inactive"
- compound: "Cc1cc(NC(=O)NCc2ccc(N3C(N)=NC(N)=NC3(C)C)cc2)ccc1S(=O)(=O)F"
  experimental_target: "SF-539 CNS"
  label_value: "inactive"
- compound: "Cc1ccc(C(Cc2ccccc2)NCCO)cc1 (stereo not given)"
  experimental_target: "SF-539 CNS"
  label_value: "inactive"
- compound: "COC(=O)[C@@H](C)C[C@H](Cc1ccccc1)NC(=O)c1csc([C@@H](C[C@H](C(C)C)N(C)C(=O)[C@@H](NC(=O)CN(C)C)C2CC2)OC(C)=O)n1"
  experimental_target: "SF-539 CNS"
  label_value: "active"
- compound: "O=C1C=C(N2C3C4CCC(C4)C32)C(=O)C=C1c1ccccc1 (stereo not given)"
  experimental_target: "SF-539 CNS"
  label_value: "inactive"
- compound: "C=COC(=O)CCN1CC1"
  experimental_target: "SF-539 CNS"
  label_value: "inactive"
- compound: "Cn1cccc1C1CC(=O)N(CCC[Se]C#N)C1=O (stereo not given)"
  experimental_target: "SF-539 CNS"
  label_value: "active"
- compound: "CN(C)C(=O)Oc1ccc(Br)cc1"
  experimental_target: "SF-539 CNS"
  label_value: "inactive"
- compound: "CC(C)COC(C[N+](=O)[O-])C(Cl)(Cl)Cl (stereo not given)"
  experimental_target: "SF-539 CNS"
  label_value: "inactive"
- compound: "O=C1N[C@@H]2[C@@H](O)[C@@H](O)[C@H](O)C[C@H]2c2cc3c(c(O)c21)OCO3"
  experimental_target: "SF-539 CNS"
  label_value: "active"
- compound: "C1CCC2(CC1)OOCNCOO2"
  experimental_target: "SF-539 CNS"
  label_value: "inactive"
- compound: "CCOC(=O)CCN(C)C1=Nc2ccc(Cl)cc2C(c2ccccc2)=[N+]([O-])C1"
  experimental_target: "SF-539 CNS"
  label_value: "inactive"
- compound: "CN1C(=O)N[C@H]2[C@@H]3NC(=O)c4ccc(Br)n4[C@@H]3C[C@]21O"
  experimental_target: "SF-539 CNS"
  label_value: "active"
- compound: "CCCCCN(CCCCC)CC(O)c1cc(Cl)ccc1OC (stereo not given)"
  experimental_target: "SF-539 CNS"
  label_value: "inactive"
- compound: "COc1ccc(S(=O)(=O)Nc2c(/C=C\\c3cc(OC)c(OC)c(OC)c3)ccc(OC)c2O)cc1OC"
  experimental_target: "SF-539 CNS"
  label_value: "active"
